Target under test: T1, human recombinant soluble CD73 protein (human, UniProt P21589 27-547)
T1 construct: also called huCD73; rhCD73
T1 sequence: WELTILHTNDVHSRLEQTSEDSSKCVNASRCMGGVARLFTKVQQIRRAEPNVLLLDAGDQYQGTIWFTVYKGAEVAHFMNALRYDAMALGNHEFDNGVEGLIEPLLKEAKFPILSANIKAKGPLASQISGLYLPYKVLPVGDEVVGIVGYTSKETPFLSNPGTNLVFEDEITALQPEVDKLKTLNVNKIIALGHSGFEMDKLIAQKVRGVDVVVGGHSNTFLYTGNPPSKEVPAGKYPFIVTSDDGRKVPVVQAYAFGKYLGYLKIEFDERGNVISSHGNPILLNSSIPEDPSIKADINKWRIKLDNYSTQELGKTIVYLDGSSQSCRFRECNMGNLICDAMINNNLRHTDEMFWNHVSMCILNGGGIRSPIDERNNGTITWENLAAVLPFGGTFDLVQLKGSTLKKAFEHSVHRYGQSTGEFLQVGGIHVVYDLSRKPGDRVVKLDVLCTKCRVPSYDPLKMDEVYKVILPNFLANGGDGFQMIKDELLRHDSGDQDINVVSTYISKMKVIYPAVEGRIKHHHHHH
Test summary: SPR, Ab captured on Protein A, soluble huCD73 as analyte
Value type: koff

H1L4 (antibody, human IgG1, V domains shown) VH: QIQLVQSGAEVKKPGASVKVSCKASGYTFTSYNMYWVRQAPGQRLEWMGYIDPYNGGSSYNLTFKGRVTITRDKSASTAYMELSSLRSEDTAVYYCARGYGNYKAWFAYWGQGTLVTVSS VL: DVQMTQSPSSLSASVGDRVTITCKASQSVSNDVAWYQQKPGKAPKLLIYYASTRYTGVPDRFSGSGYGTDFTFTISSLQPEDIATYFCQQDYSSLTFGQGTKLEIK :: 6.77e-05 s⁻¹
H0L3 (antibody, human IgG1, V domains shown, H0 VH limits counted by alignment with H1) VH: QVQLVQSGAEVKKPGASVKVSCKASGYTFTSYNMYWVRQAPGQRLEWMGYIDPYNGGSSYNLTFKGRVTITRDTSASTAYMELSSLRSEDTAVYYCARGYGNYKAWFAYWGQGTLVTVSS VL: DVQMTQSPSSLSASVGDRVTITCKASQSVSNDVAWYQQKPGKAPKLLIYYASTRYTGVPDRFSGSGYGTDFTFTISSLQPEDIATYYCQQDYSSLTFGQGTKLEIK :: 9.49e-05 s⁻¹

We now examine a further binder.
Give its koff value. Item: H1L1 (antibody, human IgG1, V domains shown) VH: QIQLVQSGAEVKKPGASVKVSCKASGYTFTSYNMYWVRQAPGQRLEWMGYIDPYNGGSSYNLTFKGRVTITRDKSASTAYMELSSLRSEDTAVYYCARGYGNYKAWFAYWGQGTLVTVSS VL: DIQMTQSPSSLSASVGDRVTITCKASQSVSNDVAWYQQKPGKAPKLLIYYASTRYTGVPSRFSGSGYGTDFTFTISSLQPEDIATYYCQQDYSSLTFGQGTKLEIK 8.43e-05 s⁻¹

The measured values listed here are drawn from patent US20220041744A1.
